System: S. enterica Typhimurium 14028 ΔtolC1::kan
PROTOCOL SUMMARY: Minimal inhibitory concentration
Format: cell-based, Salmonella enterica serovar Typhimurium
STUDY CONDITIONS: Salmonella enterica, TYPHIMURIUM, read-out: S. enterica Typhimurium 14028 ΔtolC1::kan MIC
READOUT LABEL: MIC

compound="COc1ccc2ncc(F)c(CCN3CCC([C@@H](O)[C@H](O)c4ccc5c(c4)OCCO5)CC3)c2n1 [16b]" result="0.5 µg/mL"
compound="O=c1ccc2ncc(=O)n3c2n1C[C@H]3CN1CCC(NCc2cc3c(cn2)OCCC3)CC1 [Gep., gepotidacin, reference compound]" result="0.125 to 0.5 µg/mL"
compound="COc1ccc2ncc(F)c(CCN3CCC(/C=C/c4ccc(C)cc4)CC3)c2n1 [13a]" result="0.5 to 1 µg/mL"

Next:
Exam item: What does the data say about its MIC? Entry: COc1ccc2ncc(F)c(CCN3CCC([C@@H](O)[C@H](O)c4ccc(C)cc4)CC3)c2n1 [16a]
Marked response: 0.5 to 1 µg/mL
